Please respond with reported Post-emerge Herbicidal Activity SORHA for every item in the list.
test system: johnsongrass (Sorghum halepense, SORHA); assay: Post-emerge test, greenhouse herbicide activity screening; format: in vivo; details: post-emerge, 250 g ai/ha, phytotoxicity rating 0-100 at 14 days after application
# print the numeric value only

Reported Post-emerge Herbicidal Activity SORHA of Nc1c(O)c(Cl)cc(F)c1N1C(=O)C2CCCCN2C1=S (single isomer, unassigned) : 90

Reported Post-emerge Herbicidal Activity SORHA of Cc1c(Cl)cc(F)c(-n2c(=O)cc(C(F)(F)F)n(C)c2=O)c1NC(=O)OCc1ccc(Cl)cc1 : 70

Reported Post-emerge Herbicidal Activity SORHA of COc1c(Cl)cc(F)c(N2C(=O)C3=C(CCCC3)C2=O)c1N : 0

Reported Post-emerge Herbicidal Activity SORHA of COc1c(Cl)cc(F)c(-n2nc(C)n(C(F)F)c2=O)c1NC(=O)c1ccc(F)cc1F : 90

Reported Post-emerge Herbicidal Activity SORHA of O=C(Nc1cc(Cl)ccc1N1C(=O)C2=C(CCCC2)C1=O)c1ccc2ccccc2c1 : 10

Reported Post-emerge Herbicidal Activity SORHA of C#CCOc1c(Cl)cc(F)c(-n2nnn(CCCF)c2=O)c1N : 10

Reported Post-emerge Herbicidal Activity SORHA of Cc1c(Cl)cc(F)c(-n2c(=O)cc(C(F)(F)F)n(C)c2=O)c1NC(=O)OCc1ccc(Cl)cc1Cl : 30

Reported Post-emerge Herbicidal Activity SORHA of C=Cc1ccc(C(=O)Nc2c(OC)c(Cl)cc(F)c2N2C(=O)C3=C(CCCC3)C2=O)cc1 : 50

All values here come from patent US6355799B1.
